tested on: T-47D breast; assay: NCI-60 one-dose screen, 48 h; conditions: 10 µM unless noted
About 83,000 compounds went through this panel and 20% of them were active in at least one assay; those are over-represented in the sample as a whole. Activity calls are given as the source filed them. Rule for the calls: active = growth percent below 10; inactive = the rest.
Please answer using one outcome listed in Yes (active), No (inactive)

Worked set:
MOLECULE | ASSAYED_SYSTEM | CLASS_LABEL
COC(=O)Nc1nc2ccc(C(=O)C3CC3)cc2[nH]1 | T-47D breast | No
C[C@]12CCC(=O)C[C@H]1CC[C@@H]1[C@@H]2CC[C@@]2(C)[C@H]1CC[C@]2(O)C(=O)CO | T-47D breast | No
CCCCNC(=O)NS(=O)(=O)c1ccc(N2N=C(c3ccc(C)cc3C)CC2c2ccc(N(C)C)cc2)cc1 (stereo not drawn) | T-47D breast | No
Oc1[nH]c2ccccc2c1/C=c1/cc2c(c(-c3ccc(F)cc3)n1)=Nc1ccccc1-2 | T-47D breast | Yes
O=c1[nH]c(=O)n(C2CC(O)C(CO)O2)cc1CO (stereo not drawn) | T-47D breast | No

Inquiry: Field: outcome | Entry: `Cc1nc(Nc2ccc(NC(=S)Nc3ccccc3)cc2)nc2nc(Nc3cccc(Cl)c3)[nH]c(=O)c12`
Reply text: No

Inquiry: Tell me the recorded outcome of this test for `CC(C)N(CCOC(=O)Nc1ccccc1Cl)C(C)C` .
Reply text: No

Inquiry: Kindly provide the recorded test outcome for the following molecule: `Cl.Fc1c[c-]c(-c2ccccn2)c(F)c1.[Pt].c1ccc(P(c2ccccc2)C([PH+](c2ccccc2)c2ccccc2)[PH+](c2ccccc2)c2ccccc2)cc1`
Reply text: No

Inquiry: Please share the test call associated with `COc1cc(/C=C/C(=O)c2cccc(-n3cc(-c4ccc(Cl)cc4)[nH]c3=O)c2)cc(OC)c1OC` .
Reply text: No

Inquiry: In this assay, the call recorded for `Cc1cc(=O)[nH]c(N/N=C/c2cc(Br)ccc2O)n1` was what?
Reply text: No

Inquiry: Call for entry `CN(C)CCOC(=O)Nc1ccc(Cl)cc1` :
Reply text: No

Inquiry: Tell me the assay call for `CN(CCCCCCCCNc1ccnc2ccccc12)Cc1ccc(-c2ccc(-c3ccc(C#N)cc3)s2)cc1` please.
Reply text: Yes

Inquiry: Check the results log: what was the call for `CC(=O)NCC(=O)Nc1ccc(-c2nnc3ccccn23)nc1.CC(=O)NCC(=O)Nc1ccc(-c2nnc3ccccn23)nc1.[Pt+2]` ?
Reply text: No

----------
test system: IGROV1 ovarian; assay: NCI-60 one-dose screen, 48 h (100 = growth as untreated, 0 = no growth, -100 = all killed); settings: 10 µM unless noted
About 83,000 compounds went through this panel and 20% of them were active in at least one assay; those are over-represented in the sample as a whole. Active and inactive are the calls of the source. How the source made its calls: active means growth percent below 10; inactive means the rest.
ASSAY_METRIC: growth

COMPOUND | ASSAYED_SYSTEM | growth
COc1ccc(OC)c(C(=O)Nc2cccc(-c3cc(=O)c4ccccc4o3)c2)c1 | IGROV1 ovarian | 104% (inactive)
CN(C)CCC(O)(Cc1ccccc1)c1ccccc1 (stereo not given) | IGROV1 ovarian | 113% (inactive)
COc1cc2c(=O)n(CCCn3ccnc3)c3c4cc5c(cc4ccc3c2cc1OC)OCO5 | IGROV1 ovarian | 19.5% (inactive)
Cc1[nH]c(-c2nc3ccccc3[nH]2)c(C)c1C(=O)N1CCc2sccc2C1 | IGROV1 ovarian | 98.5% (inactive)
CC(C)n1nc(C#Cc2cccc(O)c2)c2c(N)ncnc21 | IGROV1 ovarian | -68.8% (active)
CCn1c(Sc2nnc(NC(C)=O)s2)nc2c1c(=O)n(C)c(=O)n2C | IGROV1 ovarian | 98.2% (inactive)
CNC(=O)c1cc(Oc2ccc3nc(NC(=O)Nc4cc(C(F)(F)F)cc(C(F)(F)F)c4)sc3c2)ccn1 | IGROV1 ovarian | -48.5% (active)
O=C1CCC(N2C(=O)c3cccc(NCCCC4CCN(CCNC(=O)c5cc6c(o5)C(=O)c5ccccc5C6=O)CC4)c3C2=O)C(=O)N1 (stereo not given) | IGROV1 ovarian | -50.3% (active)

// assay IGROV1 ovarian, entry `COc1ccc(-c2cc(-c3cc(OC)ccc3OC)[nH]c(=O)c2C#N)cc1` , growth value = 53.3% (inactive)

Entry `CN(C)c1ccc2cc(-c3ccccc3F)c(N)nc2c1` under IGROV1 ovarian had growth of 40.9% (inactive)

Entry `Cc1c(Cl)cccc1NS(=O)(=O)c1ccccc1` , IGROV1 ovarian data, growth value: 114% (inactive)

Note to self: growth of `Cc1[nH]c(-c2nc3ccccc3[nH]2)c(C)c1C(=O)N1CCOCC1` with IGROV1 ovarian was 99.4% (inactive)

Bench note, IGROV1 ovarian: `COc1ccc(-c2nc3ncccn3c2/C=C/C(=O)c2cc(OC)c(OC)c(OC)c2)cc1` , growth reads 17.2% (inactive)

Given the compound `COc1cc(CNC(=O)/C=C/C=C/c2ccc3c(c2)OCO3)ccc1OCc1cn(-c2ccc(Cl)c(Cl)c2)nn1` and test system IGROV1 ovarian, the measured growth is 6.63% (active)

Entry `CN=C1C=CC(=C(c2ccc(N(C)C)cc2)c2ccc(N(C)C)cc2)C=C1` under IGROV1 ovarian had growth of -12.7% (active)

Readout growth for `CC(=O)c1sc(-c2ccccc2)cc1N` , test system IGROV1 ovarian, was 105% (inactive)

// returns growth for `CCCCCOC(=O)c1cccc(NC(=O)CN(CC)CC)c1` with IGROV1 ovarian; value = 107% (inactive)

Fill in: IGROV1 ovarian growth for `CCOC(=O)c1ccc(NC(=O)CCCN(CC)CC)cc1` = 107% (inactive)

GET /values?item= `C=C(C)[C@@H]1CC[C@]2(CO)CC[C@]3(C)[C@H](CC[C@@H]4[C@@]5(C)C=C(C#N)C(=O)C(C)(C)[C@@H]5CC[C@]43C)[C@@H]12` &system= IGROV1 ovarian returns growth: 24.1% (inactive)

The compound `CC(C)(C)CC(C)(C)Nc1c(-c2ccc(-c3ccccc3)cc2)nc2cnccn12` on IGROV1 ovarian: growth was 66% (inactive)

Simply: `CN1CCN(C(=O)[C@]23CCC(C)(C)C[C@@H]2C2=CC[C@@H]4[C@@]5(C)Cc6c([nH]c7ccccc67)C(C)(C)[C@@H]5CC[C@@]4(C)[C@]2(C)CC3)CC1` , IGROV1 ovarian, growth = 84.4% (inactive)

Value sought: growth, system IGROV1 ovarian, item `CC(C)N(CCOC(=O)Nc1ccccc1Cl)C(C)C` . Result: 107% (inactive)

----------
tested on: KM12 colon; assay: NCI-60 one-dose screen, 48 h (100 = growth as untreated, 0 = no growth, -100 = all killed); conditions: 10 µM unless noted
Compounds without any hit were thinned out: in the full panel of roughly 83,000, 20% have a hit.
Item-by-item account of growth
Record the value in %, omitting the unit from your answer.

Examples with answers:
COMPOUND | growth, %
Cc1csc(NC(=O)c2sc3nc(-c4cccs4)ccc3c2N)n1 | 92.9
COC(=O)CNC(=O)C(=O)c1c(O)c(O)c(C(C)C)c2cc(C)c(-c3c(C)cc4c(C(C)C)c(O)c(O)c(C(=O)C(=O)NCC(=O)OC)c4c3O)c(O)c12 | 16.1
[2H]c1nc(Nc2ncc(F)c(-c3cc(F)c4nc(C)n(C(C)C)c4c3)n2)c([2H])c([2H])c1CN1CCN(C([2H])([2H])C([2H])([2H])[2H])CC1 | 40.5

// field: growth; key: `CCCCNC(=O)c1cc(NCc2cc(O)ccc2O)ccc1O` ; value = 78.4

In plain terms, CCOC(=O)C(O)C(O)(c1ccccc1)c1ccccc1 (stereo not given) has a documented growth of 101

Input `Cc1nc(-c2ccccc2)cc2c(O)c(C(=O)N/N=C/c3ccc(N(C)C)cc3)[nH]c(=O)c12` . Output growth: 82.3

----------
tested on: SR leukemia; test: NCI-60 one-dose screen, 48 h; settings: 10 µM unless noted
This is part of a sample that, as a whole, favours compounds with a hit. Of some 83,000 tested, about 20% had one in any assay. Activity calls are given as the source filed them. The calls were made as follows: active = growth percent below 10; inactive = the rest.
Returns: one label drawn from true (1) (active), false (0) (inactive)

Below are worked cases with known answers.
COMPOUND | CLASS_LABEL
O=C(NCCOCCOCCOCCNC(=O)c1cc2c(o1)C(=O)c1ccccc1C2=O)NC12CC3CC(CC(C3)C1)C2 | false (0)
CCOC(=O)C(O)C(O)(c1ccccc1)c1ccccc1 (stereo not drawn) | false (0)
COC(=O)CNC(=O)C(=O)c1c(O)c(O)c(C(C)C)c2cc(C)c(-c3c(C)cc4c(C(C)C)c(O)c(O)c(C(=O)C(=O)NCC(=O)OC)c4c3O)c(O)c12 | false (0)
CC1(C)N=C(N)N=C(N)N1c1cccc(CN)c1 | false (0)
Cn1cc(-c2ccc3ncc(-c4ccc(CC(=O)Nc5cc(C(C)(C)C)nn5C)cc4)cc3c2)cn1 | false (0)

Inquiry: What did this assay record as the result for `CCCCN(Cc1ccc(C(=O)NO)cc1)C(=O)Nc1ccc(OCCCCCCCCCn2cc(CCCCC(=O)N[C@H](C(=O)N3C[C@H](O)C[C@H]3C(=O)NCc3ccc(-c4scnc4C)cc3)C(C)(C)C)nn2)cc1` ?
Reply text: false (0)

Inquiry: Per the records of this test, what outcome belongs to `CCOC(=O)c1sc(-c2ccc(OS(=O)(=O)c3ccc(C(C)(C)C)cc3)c(C=O)c2)nc1C` ?
Reply text: false (0)

Inquiry: Could you please tell me the result logged for `CCCCCCCC/C=C\CCCCCCCC(=O)Oc1cccc2cccnc12` in this assay?
Reply text: false (0)

Inquiry: Recorded call for `CCNCCNc1cc(-c2ccc(C(=O)OC)cc2)c(C#N)c2nc3ccccc3n12` ?
Reply text: true (1)

Inquiry: # lookup: test call for `COc1cc(-c2cccc([N+](=O)[O-])c2)c(-c2nc(-c3ccccc3)c(-c3ccccc3)n2C2CC2)cc1OC`
Reply text: false (0)

Inquiry: For CCOC(=O)C1C(=O)C=C(c2cnccn2)CC1c1ccc(OC)c(OC)c1 (stereo not drawn) , what call appears in the results of this test?
Reply text: false (0)

Inquiry: Record request — test call for CCC(C)NCc1ccccc1 (stereo not drawn)
Reply text: false (0)

Inquiry: Entry `CN1CCN(CCCOc2ccc3nc(Nc4cc(Cl)cc(Cl)c4)ccc3c2)CC1` : call = ?
Reply text: true (1)
